Hey, just so you know, these numbers are from the nanobody polyreactivity screen of Harvey et al. (2022).

# assay-explanation: yeast display, Sf9 membrane polyspecificity reagent, FACS + sequencing; frameworks hold sequencing errors
endpoint-name: polyreactivity (PSR sort gate)

INSERT INTO assay_data (item_sequence, reported_result) VALUES
  ('QVQLVESGGGLVQAGGSLRLSCAAYGRIFYRNAMGWYRQAPGKERELVAAISRSGGSTYYADSVKGRFTISRDNAKNTVYLQMNSLNPEDTAVYYCNAYRYLQSGPPRYREHGSWGQGTQVTVSS', 'low polyreactivity'),
  ('QVQLVESGGGLVQAGGSIRLSCAASGSTFRVYAMGWYRQAPGKERELVAAISSSGGITYYADSVKGRFTISRDNAKNTVYLQMNSLKPEDTAVYYCAKGTVIHVLYDYWGQGTQVTVSS', 'low polyreactivity'),
  ('QVQLVESGGGLVQAGGSLRLSCAASGRTFPRNGMGWYRQAPGTERELVAAISWSGGRTYYADSVKGRFTISRDNAKNTVYLQMNSLKPEDTAVYYCNALYFRKGGYWGQGTQVTVSS', 'high polyreactivity'),
  ('QVQLVESGGGLVQAGGSLRLSCAASGSIFDDYAMGWYRKAPGKERELVAAITSGGSTYYADSVKGRFTISRDNAKNTVYLQMNSLKPEDTAVYYRATRYHWSSSFAPVGAYGYWGQGTQVTVSS', 'low polyreactivity'),
  ('QVQLVESGGGLVQAGGSLRLSCAASGTFDTYSMGWNRQAPGKERELVADISSVGSTYYADSVKWRFTISRDNAKNTVYLQMNSLKPEDTAVYYCAATYPYPYYYIEYYYWGQGTQVTVSS', 'low polyreactivity'),
  ('QVQLVESGGGIVQAGGSLRLSCAASGSTFLYYAMGWSRQAPGKEREFVAAISISGGSTYYADSVKGRFTISRDNAKNTVYLQMNSLKPEDTAVYYCAAEVGIVDYDYWGQGTQVTVSS', 'low polyreactivity'),
  ('QVQLVESGGGLVQAGGSLRLSSAASGSILTPNAMGWYRQAPGKERELVAAINYSGGSTYYADSVKGRFTISRDTAKNTVYLQMNSLKPEDTAVYYCAVPYWYGRGHCYWGQGTQVTVSS', 'low polyreactivity'),
  ('QVQLVESGGGLVQAGGSLRLSCAASGLTFYYYAMGWYRQAPGKERELVAAISSVGSTYYADSVKGRFTISRDNAKNTVYLQRNSLKPEDTAVYYCAAKSYWWHEDYWGQGTQVTVSS', 'low polyreactivity'),
  ('QVQLVESGGGLVQAGGSLRLSCAASGLIFRYYAMGWYRQAPGKERELVAAIDGSDGITYYADSVKGRFTISRDNAKNTVYLQMNSLKPEDTEVYYCDAAFYYWGQGTQVTVSS', 'low polyreactivity'),
  ('QVQLVESGGGLVQAGGSLRLSCAASGFTFDPDAMGWYRQAPGKERELVASITWSGDNTYYADSVKGRFSISRDNAKTTVYLQMNSLKPEDTAVYYCNVEWAWWSTRYDSWGQGTQVTVSS', 'high polyreactivity'),
  ('QVHLVESGGGLVQAGGSLRLSCAASGFTFPEYYMGWYRQAPGKESELVAAINYSDGRTFYADSVKGRFTISRDNAKNSVYLQMNSLKPEDTAVYYCASDLSYDVWFFGPDYDYSGQGTQVTVSS', 'low polyreactivity'),
  ('QVQLVESGGGLVQAGGSLRLSCSASGSTFTYYAMGWYRQAPVKERELVADIDFSGTSTYYADSVKGRFTVSRDNAKNTVYLQMNSLKPEDTAVYYCATDDYNWFDYDYWGQGTHVTVSS', 'low polyreactivity'),
  ('QVQLVESGGGLVQAGGSLRISCAPSGIIFTDYAMGWYRQAPVKERELVAAISSGGGYTYYADSVKGRFTISRDNAKNTVYLQMISLKPEDTAVYYCAAEGYLISGAGDYLYDYYLGQGTQVTVSS', 'high polyreactivity'),
  ('QVQLVESGGGLVQAGGSLRLTCAASGSTFPRYAMGWYRQAPGKEREFVAVIWSGGSTYYADSVKGRFTISRDNAKNTVYLQMNSLKPEDSAVYYCAAEYHTLSKYSGYATHDYWGQGTQVTVSS', 'low polyreactivity'),
  ('QVQLVESGGGLVQAGGSLRLSCAASGRIFFVNAMGWYRQAPGKERELVAAISWSGGNTNYADSVKGRFTISRDNAKNTVYLQMNSLKPEDTAVYYCAADNSVGEYQRVDYDYWGQGTQVSVSS', 'low polyreactivity'),
  ('QVQLVESGGGLVQAGGSLRLSCAASGRIFQPNAMGWYRQAPGKERELVAAISSSGGRTYYADSVKGRFTISRDNAKNTVYLQMYSLKPEDSAVYYCNAGGYRYRSYDYWGQGTQVTVSS', 'high polyreactivity'),
  ('QVQLVESGGGLVQAGGSLRLSCAASGYIFGVNALGWYRQAPGKERELVAAIDSGSRTYYADSVKGRFTISRDNAKNTVYLQMNSLKPEDTAVYYFATTFYVSYGGGYYTIWYDYWGQGTQVTVSS', 'low polyreactivity'),
  ('QVQLVESGGGLVQAGGSLRLSCAASGRTFSRYVMGWYRQAPGKERELVAAISRTGGRTYYADSVKGRFTISRDNAKNTVYLQMNSLKPEDTAVYYCNAGTVLISTYDYWGQGTQVSVSS', 'high polyreactivity'),
  ('QVQLVESGGGLVQAGGSLRLSCAASGSIFGYYTMGWYRQAAGKERELVAAITLDTGNTYYADSVKGRLTITRDNAKNTVYLQMNSLKPEDTAVYYCNTDYYSGYIARWSFDYWGQGTQVTVSS', 'low polyreactivity'),
  ('QVQLVESGAGLVQAGGSLSLSCAASGRIFDRYVMGWYRQAPGKERELVAAISDGGSTYYADSVKGRFTISRDNAKNTVYLQMNSLKPEDTAVYYCAAVRYNSRVSTTPSEMYYWGQGTQVTVSS', 'low polyreactivity'),
  ('QVQLVESGGGLVQAGGSLRLICAASGIIFYVYAMGWYRQAPGKERELVAAISFRGTSTYADSVKGRFTISRDNAKNTVYLQLNSLKPEDTAVYYCAVTGFDVLWPSLGGVLDYWGQGTQVTVSS', 'low polyreactivity');
